tested on: Colon cancer organoid; test: Optimized Dual-Glo assay to identify co-culture induced drug vulnerabilities using donated chemical probes and chemogenomics kinase set in O14 CRC organoid and F14 CAF mono and co-culture. […] Cell viability is reported both mono and co-culture models.; format: functional, Homo sapiens; parameters: dose or concentration left out as unconfirmed; conditions: Culture type Mono-Culture; Transduced with Renilla-dsRed lentivirus
endpoint-label: Cell Viability (%)
Express the result in % but write the number alone.

Using the record for Cc1cc(F)c(C(=O)Nc2cccc(-c3nncn3C(C)C)n2)cc1-n1cnc(C2CC2)c1 [SELONSERTIB] , report its Cell Viability.
83.0493

Another compound: CCN(CCO)CCCOc1ccc2c(Nc3cc(CC(=O)Nc4cccc(F)c4)[nH]n3)ncnc2c1 [DEFOSBARASERTIB]
95.9515

Also CC1=C(C#N)C(c2ccc3c(c2)c(NC(=O)c2ccccc2C)nn3C)C(C#N)=C(C)N1 [BAY-974] ?
100.218

Field entry: CC1=C(C#N)C(c2ccc3[nH]nc(C)c3c2)C(C#N)=C(C)N1 [BAY-474]
85.997

Do the same for COCC(=O)NC/C=C/c1ccc2ncnc(Nc3ccc(Oc4ccc(C)nc4)c(C)c3)c2c1 [CP-724714] please
87.9569

Note, next up: CN([C@@H]1CCc2c(CC(=O)O)c3ccccc3n2C1)S(=O)(=O)c1ccc(F)cc1 [MK-7246]
107.31

Proceed to COc1ccccc1C(=O)Nc1cc2c(cc1N1CCNCC1C)n(C)c(=O)n2C (stereo unspecified)
95.8386

And CC[C@@H]1C(=O)N(C)c2cnc(Nc3ccc(C(=O)NC4CCN(C)CC4)cc3OC)nc2N1C1CCCC1 [BI-2536] ?
192.03

Similarly, C[C@H](c1ccc(F)cc1)N(Cc1ccc(Cl)c(C(=O)O)c1)C(=O)c1cnc2ccccc2c1 [PF-05257137] ?
101.269

Same lookup for CNC(=O)c1ccc(Nc2ncc(C(F)(F)F)c(NCc3nccnc3N(C)S(C)(=O)=O)n2)cc1 [DEFACTINIB] , please.
104.257

Similarly, `CC(=O)c1cc(-c2ccccc2OCC2CC2)c2ncccn12` ?
100.736

Further, for CO[C@@H](C)c1c(Nc2ccc([C@@H](N(C)C(=O)C3CCS(=O)(=O)CC3)C(F)(F)F)cc2)cnc2cc(Cl)nn12 [NVS-MALT1-C] ?
104.147

Entry CN(C)C/C=C/C(=O)Nc1cc2c(Nc3ccc(F)c(Cl)c3)ncnc2cc1O[C@H]1CCOC1.O=C(O)/C=C\C(=O)O.O=C(O)/C=C\C(=O)O [AFATINIB DIMALEATE] please
44.7132

Note, next up: O[C@H]1CC[C@H](Nc2ncc3nc(Nc4c(F)cc(F)cc4F)n([C@H]4CCOC4)c3n2)CC1 [TANZISERTIB]
109.828

And for `Cl.Cl.NC1(c2ccc(-c3nc4ccn5c(=O)[nH]nc5c4cc3-c3ccccc3)cc2)CCC1` ?
88.3443

Check OCCn1cc(-c2cnc3nnn(Cc4ccc5ncccc5c4)c3n2)cn1 [PF-04217903] too.
91.0833

---

Would you kindly list Cell Viability for each of these compounds?
tested on: Colon cancer organoid; experiment: Optimized Dual-Glo assay to identify co-culture induced drug vulnerabilities using donated chemical probes and chemogenomics kinase set in O14 CRC organoid and F14 CAF mono and co-culture. […] Cell viability is reported both mono and co-culture models.; format: functional, Homo sapiens; parameters: dose or concentration left out as unconfirmed; conditions: Culture type Mono-Culture; Transduced with Renilla-dsRed lentivirus

Lab request: please report Cell Viability under test system Colon cancer organoid for `CCNC(=O)c1cc2c(N3CCOC[C@@H]3C)ccnc2n1C`
93.9449%

One more compound: `CC(=O)C1=C(C)N(c2cccc(C(F)(F)F)c2)C(=O)N[C@@H]1c1ccc(C#N)nc1`
104.156%

Same thing, different compound: `COc1cc(N(C)c2ccnc3ccc(C(F)(F)F)cc23)cc(OC)c1OC`
84.9016%

What about `CC1=C(C)C(=O)C(C(C)(C)CC(=O)N(CCCCSC[C@H]2O[C@@H](n3cnc4c(N)ncnc43)[C@H](O)[C@@H]2O)Cc2cccc(-c3ccc(Cl)cc3)c2)=C(C)C1=O` ?
102.407%

Entry to check: `CC(C)Oc1ccc(-c2c[nH]cc2CN(C)CCN)cc1`
88.3814%

// next record `CN1CCN(Cc2ccc(Nc3ncc(Cl)c(Nc4ccccc4S(=O)(=O)N(C)C)n3)cc2)CC1`
1.499%

Here is the next compound: `COc1c(OCCCN2CCOCC2)ccc2c1N=C(NC(=O)c1cnc(N)nc1)N1CCN=C21`
50.5605%

Then `CCOc1cc(N2CCC(O)CC2)ccc1Nc1ncc2c(n1)N(C1CCCC1)CCC(=O)N2C` ?
149.574%

---

Provide the recorded Cell Viability for the entries that follow.
test system: Colon cancer organoid; test: Optimized Dual-Glo assay to identify co-culture induced drug vulnerabilities using donated chemical probes and chemogenomics kinase set in O06 CRC organoid and F06 CAF mono and co-culture. […] Cell viability is reported both mono and co-culture models.; type: functional, Homo sapiens; design: dose or concentration left out as unconfirmed; conditions: Culture type Co-Culture; Transduced with Renilla-dsRed lentivirus
Just the number in %, nothing appended.

# lookup: Cell Viability of `Cn1cc(CNCC2CCN(c3ncc(C(=O)NO)cn3)CC2)c2ccccc21`
190.694

Same thing, different molecule: `CCCCNNC(=O)c1ccc(Br)cc1`
110.004

Query `CNC(=O)c1ccccc1Nc1cc(Nc2ccc(N3CCOCC3)cc2OC)ncc1C(F)(F)F` next
57.2971

// repeat for `CC(C)(O)[C@H](F)CN1Cc2cc(NC(=O)c3cnn4cccnc34)c(N3CCOCC3)cc2C1=O` and report
89.8431

Then this molecule: `C[C@@H]1CC(=O)Nc2cccc(-c3ccc4c(c3)c(-c3cnn(C)c3)nn4C)c2N1`
166.358

Input `COc1cc(C(=O)O)ncc1C#Cc1ccccc1NS(=O)(=O)c1cccc2c(N(C)C)ccnc12`
64.6541

Also need `Cc1cc2c(-c3ccco3)cnc(N[C@@H]3CCN(C)C[C@H]3C(=O)NC3CCCCC3)c2[nH]c1=O` , thanks.
134.369

# iterate: `O=C(Nc1nc2cccc(-c3ccc(CN4CCS(=O)(=O)CC4)cc3)n2n1)C1CC1`
92.8016

Now give it for `CN1CCN(C(=O)C(C)(C)c2ccc(C(=O)Nc3cn4cc(-c5ccncc5)ccc4n3)cc2)CC1` too.
189.116

Same thing, different molecule: `CC(=O)c1cc(-c2cc(C(=O)NC3CC3)ccc2C)c2ncccn12`
118.795

And `COc1cc2c(cc1OCCCN1CCCC1)N=C(N)C21CCC1` ?
83.704

And C[C@H]1CC(=O)Nc2cc(C(=O)NCCC3CC3)ccc2N1C(=O)N1CC2CC2C1 (some centres undefined) ?
132.849

Further, for `CC[C@H](CO)Nc1nc(NCc2ccccc2)c2ncn(C(C)C)c2n1` ?
112.199

And `CCN(CC)S(=O)(=O)Nc1cccc(-c2ccc3c(NC(=O)C4CC4)n[nH]c3c2)c1` ?
91.2372

---

tested on: Colon cancer organoid; experiment: Optimized Dual-Glo assay to identify co-culture induced drug vulnerabilities using donated chemical probes and chemogenomics kinase set in O06 CRC organoid and F06 CAF mono and co-culture. […] Cell viability is reported both mono and co-culture models.; type: functional, Homo sapiens; set-up: dose or concentration left out as unconfirmed; details: Culture type Co-Culture; Transduced with Renilla-dsRed lentivirus
endpoint-label: Cell Viability (%)
# number only, unit % dropped from output

Return reported Cell Viability; argument: `Cn1c(=O)[nH]c2cc(N3C(=O)c4cccc5c(CCCO)ccc(c45)C3=O)ccc21`
110.623

Next molecule up: `CSc1cccnc1N1CCN(Cc2nc3ccccc3[nH]2)CC1`
139.823

Then what about the molecule COc1cc(C)c(Sc2cnc(NC(=O)c3ccc(CNC(C)C(C)(C)C)cc3)s2)cc1C(=O)N1CCN(C(C)=O)CC1 (centres undefined) ?
73.4932

Next molecule: `Cc1cc(C)cc(C(=O)NOCCCCCC(=O)NO)c1`
454.718

Continue with `O=C(Nc1ccc(-c2ccnc(Nc3ccc(N4CCOCC4)cc3)n2)cc1)[C@@H]1CCCN1`
96.014

Same read-out for `COc1cc(OC)cc(-c2noc(N3CCN(C)C4(CCN(c5ccccc5)CC4)C3)n2)c1` ?
115.277

Same thing, different molecule: `OCCn1cc(-c2cnc3nnn(Cc4ccc5ncccc5c4)c3n2)cn1`
107.387

What about `O[C@H]1CC[C@H](Nc2ncc3nc(Nc4c(F)cc(F)cc4F)n([C@H]4CCOC4)c3n2)CC1` ?
109.826

Also check `Cc1cn(-c2cc(NC(=O)c3ccc4c(c3)CN(c3cncnc3)C[C@@H]4C)cc(C(F)(F)F)c2)cn1`
98.7805

All figures here come from ChEMBL document CHEMBL5674860.
